Kindly state log10(TGI) for each of the entries shown.
- Test system: NCI-H522 lung
- Experiment Summary: NCI tumour cell line growth inhibition, 48 h
Could you please treat all values as log10 of TGI in µM?

Requested read-out: log10(TGI). Entry: CC(C)(C)C(=CS(=O)/N=C/c1ccccc1)C(C)(C)C (stereo not given) 1.80

Suppose we examine the compound CC(=O)NC1C(OCc2ccccc2)OC(CO)C(O)C1OC(C)C(=O)NC(C(=O)NC(CCC(=O)NCCCCNc1c2ccccc2nc2cccc([N+](=O)[O-])c12)C(N)=O)C(C)C (stereo not given) ; what log10(TGI) value has been reported? -0.29

Sample O=C1/C(=C/c2ccccc2)CN(C(=O)CCN2CCCC2)C/C1=C\c1ccccc1 — what was its log10(TGI)? 0.45

Dear colleague, I am looking for the recorded log10(TGI) of the following compound: CCCSc1ccc2[nH]c(N3C(=O)/C(=C/c4ccccc4)N=C3c3ccccc3)cc2c1 1.56

Look up log10(TGI) for this compound: Cc1cc(N(CCC#N)CCC#N)ccc1N=Nc1ccc(Br)cc1 1.78

I would be grateful if you could share the reported log10(TGI) for O=C(c1cccs1)N1CCN(C(=O)c2cccs2)C1=S . 1.55

* * *

Assign TGI to each entry below.
- Test system: HOP-92 NSCLC
- Experiment Summary: NCI tumour cell line growth inhibition, 48 h
All answers are understood in µM, so give the number only.

So what does the record say about TGI for COc1ccc(-c2oc3cc(O)cc(O)c3c(=O)c2OC)cc1 ? 16.1

Given Cc1ccccc1-c1nc2c(C(=O)NCCN(C)C)cccc2[nH]1 , state its recorded TGI. 85.1

Please report the recorded TGI for Nc1ccc(S(=O)(=O)Nc2nc3ccccc3nc2N2CCCCCC2)cc1 . 63.6

Suppose we examine the molecule c1ccc2c(-c3nc(-c4c[nH]c5ccncc45)cs3)c[nH]c2c1 ; what TGI value has been reported? 3.28

Need TGI, item CCOC(=O)CCn1ncc(Cl)c(Cl)c1=O 26.2

Find the recorded TGI belonging to Cc1ccc(S(=O)(=O)c2nc(-c3ccccc3)oc2S(C)=O)cc1 (stereo unspecified) and report it. 2.77

Returns the measured TGI for the input molecule. Input: COc1ccc(-c2nc(-c3nc4ccc(F)cc4[nH]3)c3ccccn23)cc1 43.8

Quick one: TGI of COc1cnc2c(c1)C(=O)c1c-2n(CCCNCCO)c(=O)c2ccncc12 ? 6.31

Sample Cc1c2c(c(C)c3c4c(oc13)CCCC4)C=NCC2 — what was its TGI? 25.4

What value of TGI has been reported for the following molecule? O=C(Nc1ccc(-c2nc(-c3cccc(OCCN4CCOCC4)c3)c(-c3ccnc(Br)c3)[nH]2)cc1)c1ccccc1 8.16

Recorded TGI of COc1ccc(Nc2ccc3ccccc3c2-c2c(O)ccc3ccccc23)cc1 , please. 14.3

* * *

What TGI was measured for each of the following?
- Tested on: A498 renal
- Experiment Summary: NCI tumour cell line growth inhibition, 48 h
Write the number in µM without appending the unit.

I have this molecule here, O=C(NCCc1ccccn1)OCc1nc2nc(Cl)nc(N3CCOCC3)c2[nH]1 , and I need its recorded TGI. 10.4

Field request: TGI | item: Cc1nn2c(/C=C3/C(=O)Nc4cc(Cl)ccc43)c(-c3ccccc3)nc2s1 72

Give its TGI value. Item: COC(=O)C1C(O)C(C)C(O)C(C)C=C(C)C2=C3C(=C(C)C(=O)c4c(O)c(c(C)c(OC(C)=O)c43)NC(=O)C(C)=C/C=C\C(C)C(O)C(C)C1O)OCO2 (stereo not given) 99.4

So what does the record say about TGI for COc1ccc(C(=O)NNc2nc(Cl)nc(N3CCN(C(c4ccccc4)c4ccccc4)CC3)n2)cc1 ? 23.2
